Cited source for all entries: ChEMBL document CHEMBL1667768

assay: Aqueous solubility of the compound at pH 7.5 at 25 degC; format: physicochemical
readout label: solubility (µM)

Answered cases to consult:
# smiles text, solubility / µM
rows = [
    ("Cn1c([N+](=O)[O-])cnc1COc1ccnc(N2CCNCC2)c1", 3.5),
    ("Cn1c([N+](=O)[O-])cnc1COc1ccccc1", 2.1),
    ("CSc1ccc(OCc2nc(Cl)c([N+](=O)[O-])n2C)cc1", 5.9),
    ("CSc1ccc(OCc2nc(S(=O)(=O)O)c([N+](=O)[O-])n2C)cc1", 7.9),
    ("CSc1ccc(OCc2ncc(Cl)n2C)cc1", 8.7),
    ("CSc1ccc(OCc2nc(Cl)c(Cl)n2C)cc1", 25.5),
    ("CSc1ccc(OCc2nc(Br)c(Br)n2C)cc1", 24.5),
    ("CSc1ccc(OCc2ncc([N+](=O)[O-])n2C)cc1", 2.5),
    ("CSc1ccc(OCc2nc(Br)c(Cl)n2C)cc1", 21.7),
    ("CCc1cc(OCc2ncc([N+](=O)[O-])n2C)ccn1", 3.1),
]

I. Cn1c([N+](=O)[O-])cnc1COc1ccncc1
II. CSc1ccc(OCc2ncc(S(=O)(=O)O)n2C)cc1
I'm curious whether I or II has the smaller solubility number. Which is it? Indicate your choice by writing its label.
I

I. Cc1cc(OCc2ncc([N+](=O)[O-])n2C)ccn1
II. CSc1ccc(OCc2ncc(Br)n2C)cc1
Please tell me which of the two, I or II , has the higher reported solubility value. Indicate your choice by writing its label.
II
(II: 8.5 µM, I: 2.2 µM)

---

experiment: Aqueous solubility of the compound at pH 1.5 at 25 degC; assay type: physicochemical
readout label: solubility (µM)

Answered cases to consult:
# smiles text, recorded result
records = [
    ("CSc1ccc(OCc2nc(Cl)c(Cl)n2C)cc1", 45.5),
    ("CSc1ccc(OCc2nc(S(=O)(=O)O)c([N+](=O)[O-])n2C)cc1", 22.8),
    ("CSc1ccc(OCc2nc(Br)c(Cl)n2C)cc1", 37.5),
    ("Cn1c([N+](=O)[O-])cnc1COc1ccccc1", 5.7),
    ("CSc1ccc(OCc2ncc([N+](=O)[O-])n2C)cc1", 5.5),
]

P. CSc1ccc(OCc2nc(Cl)c([N+](=O)[O-])n2C)cc1
Q. Cc1cc(OCc2ncc([N+](=O)[O-])n2C)ccn1
Please tell me which of the two, P or Q , has the higher reported solubility value. Indicate your choice by writing its label.
P

a. CSc1ccc(OCc2ncc(Cl)n2C)cc1
b. CCc1cc(OCc2ncc([N+](=O)[O-])n2C)ccn1
Please tell me which of the two, a or b , has the higher reported solubility value. Indicate your choice by writing its label.
a
(a: 21 µM, b: 5.9 µM)

P. CSc1ccc(OCc2nc([N+](=O)[O-])cn2C)cc1
Q. CSc1ccc(OCc2ncc(Br)n2C)cc1
I'm curious whether P or Q has the smaller solubility number. Which is it? Indicate your choice by writing its label.
P
(P: 5.1 µM, Q: 18.5 µM)

---

assay: Aqueous solubility of the compound at pH 1.5 at 25 degC; format: physicochemical
readout label: solubility (µM)

# smiles text, solubility (µM)
data = [
    ("CSc1ccc(OCc2nc(Cl)c(Br)n2C)cc1", 35.8),
    ("Cn1c([N+](=O)[O-])cnc1COc1ccncc1", 4.8),
    ("CSc1ccc(OCc2nc(Br)c(Br)n2C)cc1", 41.2),
    ("Cn1c([N+](=O)[O-])cnc1COc1ccnc(N2CCNCC2)c1", 5.6),
]

P. CSc1ccc(OCc2nc(Br)c([N+](=O)[O-])n2C)cc1
Q. CSc1ccc(OCc2ncc(S(=O)(=O)O)n2C)cc1
I'm curious whether P or Q has the smaller solubility number. Which is it? Indicate your choice by writing its label.
P
(P: 16.7 µM, Q: 25.4 µM)

---

assay: Aqueous solubility of the compound at pH 7.5 at 25 degC; type: physicochemical
readout label: solubility (µM)

# smiles text, readout label, recorded result
rows = [
    ("CSc1ccc(OCc2nc(Br)c([N+](=O)[O-])n2C)cc1", "solubility", 5.8),
]

a. CSc1ccc(OCc2nc([N+](=O)[O-])cn2C)cc1
b. CSc1ccc(OCc2nc(Cl)c(Br)n2C)cc1
I'm curious whether a or b has the smaller solubility number. Which is it? Indicate your choice by writing its label.
a
